Cited source for all entries: PubChem BioAssay AID2060885

System: NCI-H23 complex spheroids with HUVEC/MSC, viability
experimentSummary: Anticancer human tumor NCI-H23 cell line growth inhibition [RAS];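 further: spheroids exposed to compound for 7 days; 100% = DMSO vehicle control viability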
conditionContext: second compound 0.1 µM; first compound 0.00316 µM; active compounds read low
Text: RAS pathway inhibitors in Combinations in Complex Spheroids A high-throughput screen of multi-cell type tumor spheroids was designed to identify active combinations of RAS pathway inhibitors and targeted small molecules. Complex spheroids include a stromal component modeled by human endothelial cells (HUVEC) and fibroblasts modeled by human mesenchymal stem cells (MSCs). […] Compounds. […] If the clinical Cmax for an agent had not been determined, the highest concentration tested was 10 microM. […]
So basically every entry gets a class from its viability, T/C, ranges being lower segment = under 40%, middle segment = from 40% up to 90%, upper segment = 90% and over

compound	cat
O=C(c1ccc(F)c(F)c1Nc1ccc(I)cc1F)N1CC(O)([C@@H]2CCCCN2)C1 + C#Cc1c(F)ccc2cc(O)cc(-c3ncc4c(N5CC6CCC(C5)N6)nc(OCC56CCCN5CC(F)C6)nc4c3F)c12	upper segment
C=CC(=O)N1CCN(c2nc(OCC3CCCN3C)nc3c(F)c(-c4nc(N)cc(C)c4C(F)(F)F)c(Cl)cc23)C(C)C1 (stereo unspecified) + C#Cc1c(F)ccc2cc(O)cc(-c3ncc4c(N5CC6CCC(C5)N6)nc(OCC56CCCN5CC(F)C6)nc4c3F)c12	middle segment
CCN1CCN(Cc2ccc(Nc3ncc(F)c(-c4cc(F)c5nc(C)n(C(C)C)c5c4)n3)nc2)CC1 + C#Cc1c(F)ccc2cc(O)cc(-c3ncc4c(N5CC6CCC(C5)N6)nc(OCC56CCCN5CC(F)C6)nc4c3F)c12	upper segment
Nc1ccn(C2OC(CO)C(O)C2(F)F)c(=O)n1 (stereo unspecified) + C=CC(=O)N1CCN(c2nc(OCC3CCCN3C)nc3c(F)c(-c4nc(N)cc(C)c4C(F)(F)F)c(Cl)cc23)C(C)C1	lower segment
C=CC(=O)Nc1cc(Nc2nccc(-c3cn(C)c4ccccc34)n2)c(OC)cc1N(C)CCN(C)C + C=CC(=O)N1CCN(c2nc(OCC3CCCN3C)nc3c(F)c(-c4nc(N)cc(C)c4C(F)(F)F)c(Cl)cc23)C(C)C1	middle segment
O=C(c1ccc(F)c(F)c1Nc1ccc(I)cc1F)N1CC(O)([C@@H]2CCCCN2)C1 + C=CC(=O)N1CCN(c2nc(OCC3CCCN3C)nc3c(F)c(-c4nc(N)cc(C)c4C(F)(F)F)c(Cl)cc23)C(C)C1	lower segment
CC(C)n1nc(-c2ccc3oc(N)nc3c2)c2c(N)ncnc21 + C#Cc1c(F)ccc2cc(O)cc(-c3ncc4c(N5CC6CCC(C5)N6)nc(OCC56CCCN5CC(F)C6)nc4c3F)c12	middle segment
CCN1CCN(Cc2ccc(Nc3ncc(F)c(-c4cc(F)c5nc(C)n(C(C)C)c5c4)n3)nc2)CC1 + C=CC(=O)N1CCN(c2nc(OCC3CCCN3C)nc3c(F)c(-c4nc(N)cc(C)c4C(F)(F)F)c(Cl)cc23)C(C)C1	lower segment
CC(C)n1nc(-c2ccc3oc(N)nc3c2)c2c(N)ncnc21 + C=CC(=O)N1CCN(c2nc(OCC3CCCN3C)nc3c(F)c(-c4nc(N)cc(C)c4C(F)(F)F)c(Cl)cc23)C(C)C1	lower segment
C=CC(=O)Nc1cc(Nc2nccc(-c3cn(C)c4ccccc34)n2)c(OC)cc1N(C)CCN(C)C + C#Cc1c(F)ccc2cc(O)cc(-c3ncc4c(N5CC6CCC(C5)N6)nc(OCC56CCCN5CC(F)C6)nc4c3F)c12	upper segment
Nc1ccn(C2OC(CO)C(O)C2(F)F)c(=O)n1 (stereo unspecified) + C#Cc1c(F)ccc2cc(O)cc(-c3ncc4c(N5CC6CCC(C5)N6)nc(OCC56CCCN5CC(F)C6)nc4c3F)c12	middle segment

###

System: NCI-H23 complex spheroids with HUVEC/MSC, viability
experimentSummary: Anticancer human tumor NCI-H23 cell line growth inhibition [RAS];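 further: spheroids exposed to compound for 7 days; 100% = DMSO vehicle control viability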
conditionContext: second compound 1 µM; first compound 1 µM; active compounds read low

compound	viability, T/C (%)
O=C(c1ccc(F)c(F)c1Nc1ccc(I)cc1F)N1CC(O)([C@@H]2CCCCN2)C1 + C#Cc1c(F)ccc2cc(O)cc(-c3ncc4c(N5CC6CCC(C5)N6)nc(OCC56CCCN5CC(F)C6)nc4c3F)c12	21.1
CCN1CCN(Cc2ccc(Nc3ncc(F)c(-c4cc(F)c5nc(C)n(C(C)C)c5c4)n3)nc2)CC1 + C=CC(=O)N1CCN(c2nc(OCC3CCCN3C)nc3c(F)c(-c4nc(N)cc(C)c4C(F)(F)F)c(Cl)cc23)C(C)C1	17.1
CC(C)NCC(C(=O)N1CCN(c2ncnc3c2C(C)CC3O)CC1)c1ccc(Cl)cc1 (configuration not stated) + C#Cc1c(F)ccc2cc(O)cc(-c3ncc4c(N5CC6CCC(C5)N6)nc(OCC56CCCN5CC(F)C6)nc4c3F)c12	66.7
CC(=O)OC12COC1CC(O)C1(C)C(=O)C(O)C3=C(C)C(OC(=O)C(O)C(NC(=O)OC(C)(C)C)c4ccccc4)CC(O)(C(OC(=O)c4ccccc4)C21)C3(C)C (configuration not stated) + C#Cc1c(F)ccc2cc(O)cc(-c3ncc4c(N5CC6CCC(C5)N6)nc(OCC56CCCN5CC(F)C6)nc4c3F)c12	23.6
C=CC(=O)N1CCN(c2nc(OCC3CCCN3C)nc3c(F)c(-c4nc(N)cc(C)c4C(F)(F)F)c(Cl)cc23)C(C)C1 (configuration not stated) + C#Cc1c(F)ccc2cc(O)cc(-c3ncc4c(N5CC6CCC(C5)N6)nc(OCC56CCCN5CC(F)C6)nc4c3F)c12	37.7
C[C@@H](NC(=O)c1ncnc(N)c1Cl)c1ncc(C(=O)Nc2cc(C(F)(F)F)c(Cl)cn2)s1 + C#Cc1c(F)ccc2cc(O)cc(-c3ncc4c(N5CC6CCC(C5)N6)nc(OCC56CCCN5CC(F)C6)nc4c3F)c12	86.1
NC1c2ccccc2OC12CCN(c1cnc3c(N4CCCc5ncccc54)n[nH]c3n1)CC2 (configuration not stated) + C#Cc1c(F)ccc2cc(O)cc(-c3ncc4c(N5CC6CCC(C5)N6)nc(OCC56CCCN5CC(F)C6)nc4c3F)c12	32.4
C[C@@H](NC(=O)c1ncnc(N)c1Cl)c1ncc(C(=O)Nc2cc(C(F)(F)F)c(Cl)cn2)s1 + C=CC(=O)N1CCN(c2nc(OCC3CCCN3C)nc3c(F)c(-c4nc(N)cc(C)c4C(F)(F)F)c(Cl)cc23)C(C)C1	42
CC(Nc1ccc2c(c1)OCCn1cc(N3C(=O)OCC3C(F)F)nc1-2)C(N)=O (configuration not stated) + C=CC(=O)N1CCN(c2nc(OCC3CCCN3C)nc3c(F)c(-c4nc(N)cc(C)c4C(F)(F)F)c(Cl)cc23)C(C)C1	22.5
CC(=O)OC12COC1CC(O)C1(C)C(=O)C(O)C3=C(C)C(OC(=O)C(O)C(NC(=O)OC(C)(C)C)c4ccccc4)CC(O)(C(OC(=O)c4ccccc4)C21)C3(C)C (configuration not stated) + C=CC(=O)N1CCN(c2nc(OCC3CCCN3C)nc3c(F)c(-c4nc(N)cc(C)c4C(F)(F)F)c(Cl)cc23)C(C)C1	15.4
Nc1ccn(C2OC(CO)C(O)C2(F)F)c(=O)n1 (configuration not stated) + C#Cc1c(F)ccc2cc(O)cc(-c3ncc4c(N5CC6CCC(C5)N6)nc(OCC56CCCN5CC(F)C6)nc4c3F)c12	7.16
CCN1CCN(Cc2ccc(Nc3ncc(F)c(-c4cc(F)c5nc(C)n(C(C)C)c5c4)n3)nc2)CC1 + C#Cc1c(F)ccc2cc(O)cc(-c3ncc4c(N5CC6CCC(C5)N6)nc(OCC56CCCN5CC(F)C6)nc4c3F)c12	34.7
Cc1nc(N2CCC3(CC2)COC(C)C3N)c(CO)nc1Sc1ccnc(N)c1Cl (configuration not stated) + C=CC(=O)N1CCN(c2nc(OCC3CCCN3C)nc3c(F)c(-c4nc(N)cc(C)c4C(F)(F)F)c(Cl)cc23)C(C)C1	18.6
Cc1nc(N2CCC3(CC2)COC(C)C3N)c(CO)nc1Sc1ccnc(N)c1Cl (configuration not stated) + C#Cc1c(F)ccc2cc(O)cc(-c3ncc4c(N5CC6CCC(C5)N6)nc(OCC56CCCN5CC(F)C6)nc4c3F)c12	35.3
CCC(CC)c1cc(NC2CCC(N)C2)n2nccc2n1 (configuration not stated) + C#Cc1c(F)ccc2cc(O)cc(-c3ncc4c(N5CC6CCC(C5)N6)nc(OCC56CCCN5CC(F)C6)nc4c3F)c12	71.6
CC1(O)CCCC1n1c(=O)c(C(F)F)cc2cnc(NC3CCN(S(C)(=O)=O)CC3)nc21 (configuration not stated) + C#Cc1c(F)ccc2cc(O)cc(-c3ncc4c(N5CC6CCC(C5)N6)nc(OCC56CCCN5CC(F)C6)nc4c3F)c12	52.7
O=C(c1ccc(F)c(F)c1Nc1ccc(I)cc1F)N1CC(O)([C@@H]2CCCCN2)C1 + C=CC(=O)N1CCN(c2nc(OCC3CCCN3C)nc3c(F)c(-c4nc(N)cc(C)c4C(F)(F)F)c(Cl)cc23)C(C)C1	12.6
